Test system: Vibrio harveyi; also: test concentration or dose not given here
assayExplanation: Mutagenicity in Vibrio harveyi BB7X assessed as number of colonies after 48 hrs (reference value: 15 to 16 no_unit)
Assay type: ADME, organism-based
experimentalConditions: in vivo
# Activity per entry
// no unit string in output, number only

Sample answers from the record:
molecule	targetEntity	Activity
Cc1cccc(C)c1OCCOCCN[C@H](C)CO.Cl	Vibrio harveyi	25
CC[C@@H](CO)NCCOCCOc1c(C)cccc1C	Vibrio harveyi	27
Cc1cccc(C)c1OCCOCCN[C@@H]1CCCC[C@H]1O (racemic)	Vibrio harveyi	25
Cc1cccc(C)c1OCCOCCN1CCC(O)CC1	Vibrio harveyi	16

Short answer on Vibrio harveyi for Cc1cccc(C)c1OCCOCCNC(C)CO (stereo unspecified) , Activity: 29

With Vibrio harveyi as the test system, Cc1cc(C)c(OCCOCCNC(C)CO)c(C)c1 (stereo unspecified) showed Activity of 24

Fill in: Vibrio harveyi Activity for Cc1cc(C)c(OCCOCCN[C@@H]2CCCC[C@H]2O)c(C)c1 (racemic) = 15

Record CC[C@H](CO)NCCOCCOc1c(C)cccc1C / Vibrio harveyi, Activity recorded as 26

Field Activity (Vibrio harveyi), entry Cc1ccc(OCCN[C@H](C)CO)c(C)c1 : 17

Given the molecule Cc1cccc(OCCOCCN[C@H]2CC[C@H](O)CC2)c1C and test system Vibrio harveyi, the measured Activity is 27

Summary line: Cc1cccc(C)c1OCCOCCN[C@@H](C)CO , Vibrio harveyi, reported Activity = 22

These measurements were taken from ChEMBL document CHEMBL3774372.
